# TARGET OF ASSAY: human ether-à-go-go-related gene (hERG) potassium channel (human, UniProt Q12809)
# Sequence (Q12809 whole entry, looked up): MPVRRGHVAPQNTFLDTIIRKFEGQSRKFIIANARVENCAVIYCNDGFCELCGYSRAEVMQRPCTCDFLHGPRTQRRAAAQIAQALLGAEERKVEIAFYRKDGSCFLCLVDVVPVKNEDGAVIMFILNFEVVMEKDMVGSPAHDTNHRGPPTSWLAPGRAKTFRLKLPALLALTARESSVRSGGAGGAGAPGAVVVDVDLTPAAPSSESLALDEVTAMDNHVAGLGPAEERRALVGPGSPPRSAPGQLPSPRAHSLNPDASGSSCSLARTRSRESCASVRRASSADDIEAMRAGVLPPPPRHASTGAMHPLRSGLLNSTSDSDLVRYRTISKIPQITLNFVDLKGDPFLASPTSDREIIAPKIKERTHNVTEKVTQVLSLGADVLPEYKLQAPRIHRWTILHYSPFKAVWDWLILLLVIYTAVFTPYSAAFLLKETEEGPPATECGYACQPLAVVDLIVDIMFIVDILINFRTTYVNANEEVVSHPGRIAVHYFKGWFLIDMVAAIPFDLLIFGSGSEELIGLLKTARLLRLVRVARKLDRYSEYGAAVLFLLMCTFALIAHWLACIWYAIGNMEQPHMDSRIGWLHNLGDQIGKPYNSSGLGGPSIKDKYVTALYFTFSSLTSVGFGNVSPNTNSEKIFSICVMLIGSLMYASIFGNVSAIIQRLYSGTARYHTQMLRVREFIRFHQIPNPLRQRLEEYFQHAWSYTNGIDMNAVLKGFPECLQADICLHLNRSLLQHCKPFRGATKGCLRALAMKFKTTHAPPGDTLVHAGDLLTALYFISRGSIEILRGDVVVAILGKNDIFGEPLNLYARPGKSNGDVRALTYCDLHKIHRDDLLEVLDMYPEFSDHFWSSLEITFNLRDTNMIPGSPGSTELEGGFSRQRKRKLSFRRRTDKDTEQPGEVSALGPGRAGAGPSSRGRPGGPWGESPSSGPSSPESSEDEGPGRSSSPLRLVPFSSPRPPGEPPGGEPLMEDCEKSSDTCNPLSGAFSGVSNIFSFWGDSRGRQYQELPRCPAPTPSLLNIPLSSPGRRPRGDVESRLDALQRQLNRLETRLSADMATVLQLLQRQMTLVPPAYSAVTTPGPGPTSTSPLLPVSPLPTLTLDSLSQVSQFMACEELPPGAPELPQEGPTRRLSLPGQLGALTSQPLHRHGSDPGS
# ASSAY PROCEDURE: primary screen, population patch clamp on CHO cells stably expressing hERG; higher = less effect of the substance
Among all 310,000 compounds or so, about 2,200 (0.71%) showed an effect of 50% or more. The effect is printed as a negative number. The sample holds strong results, similar compounds and a random draw of the others, so the mix is not that of the screen.
hERG current change (%, negative = inhibition) at 1uM: recorded values
Give just the number in %; leave the unit off.

Please review the entries below; each comes with its answer.
>>> value_observed("O=C(NCCNC(=O)c1ccc(Cl)cc1Cl)c1cnccn1")
6.54
>>> value_observed("C=CCN(CC=C)CCOc1cc(C)ccc1[N+](=O)[O-].O=C(O)C(=O)O")
6.69
>>> value_observed("CCCCc1nn(-c2cc(Cl)ccc2OC)c2c1C(=O)CCC2")
12.2
>>> value_observed("CC(=O)NC(CC(=O)OCc1ccc([N+](=O)[O-])cc1)c1ccccc1 (stereo not drawn)")
-27
>>> value_observed("CCc1ccc(/C=C(/C#N)C(N)=S)s1")
15

## Input So what does the record say about hERG current change (%, negative = inhibition) at 1uM for Cn1c(=O)n(C)c2cc(S(=O)(=O)NCC(=O)O)ccc21 ?
## Output 4.84

## Input Fill in: hERG current change (%, negative = inhibition) at 1uM of C=CCN(CC=C)CCOc1ccc(C)cc1[N+](=O)[O-].O=C(O)C(=O)O is ___
## Output -62.5

## Input Sample O=C(COc1ccc(-n2ccnc2)cc1)Nc1cccc(Cl)c1 — what was its hERG current change (%, negative = inhibition) at 1uM?
## Output -3.13

## Input Please report the recorded hERG current change (%, negative = inhibition) at 1uM for O=C1NC(Cc2ccccc2)C(=O)N1CC(=O)N1CCCc2ccccc21 (stereo not drawn) .
## Output 5.14

###

# TARGET OF ASSAY: human ether-à-go-go-related gene (hERG) potassium channel (human, UniProt Q12809)
# ASSAY PROCEDURE: primary screen, population patch clamp on CHO cells stably expressing hERG; higher = less effect of the substance
Hit rate of the full screen: of about 310,000 compounds, about 2,200 (0.71%) showed an effect of 50% or more. The effect is printed as a negative number. This excerpt belongs to a sample that is enriched for strong results.
Measured hERG current change (%, negative = inhibition) at 1uM by item
Please report the result as a number followed by the unit.

Known results for molecules:
>>> value_observed("O=C(CN1CCCC1)Nc1ccc(Cl)cc1C(=O)c1ccccc1.O=C(O)C(=O)O")
"0.588%"
>>> value_observed("Cc1ccc(C)c2[nH]c(=O)c(CN(CCN3CCCC3)C(=O)Nc3cccc(Cl)c3)cc12")
"-35.6%"
>>> value_observed("O=C(CN1CCN(C(=O)c2ccco2)CC1)Nc1cc(Cl)ccc1Cl")
"-8.91%"
>>> value_observed("COc1ccc(/C=N/Nc2nc(N3CCCC3)nc(N3CCCC3)n2)cc1O")
"7.51%"
>>> value_observed("Cc1csc2nc(NC(=O)c3ccccc3)sc(=O)c12")
"8.93%"

## Input # hERG current change (%, negative = inhibition) at 1uM lookup, item CN1CCN(CC(=O)Nc2ccc([N+](=O)[O-])cc2C(=O)c2ccccc2)CC1
## Output -91.5%

## Input What measured hERG current change (%, negative = inhibition) at 1uM goes with CCOc1ccc(Cl)cc1Nc1nc(NCCO)nc(N2CCCC2)n1 ?
## Output 5.92%

## Input # get_value(readout='hERG current change (%, negative = inhibition) at 1uM', item= CSc1cccc(NC(=S)N(CCCN2CCCC2)Cc2cccs2)c1 )
## Output -17.9%

## Input What value of hERG current change (%, negative = inhibition) at 1uM has been recorded for this entry: COc1ccccc1CNC(=O)C1CCCN(S(=O)(=O)c2cccc3cccnc23)C1 (stereo not shown)
## Output 0.692%

## Input Reported hERG current change (%, negative = inhibition) at 1uM for Cc1ccc(C)c2[nH]c(=O)c(CN(CCN3CCCC3)C(=O)Nc3ccc(F)cc3)cc12 : what is it?
## Output -76.6%

## Input So what's the measured hERG current change (%, negative = inhibition) at 1uM for this one? CCN(CC)CC(=O)Nc1ccc(Cl)cc1C(=O)c1ccccc1
## Output 6.87%

## Input Need hERG current change (%, negative = inhibition) at 1uM of CCOC(=O)N1CCN(C(=O)c2oc3ccc(S(=O)(=O)N4CC(C)CC(C)C4)cc3c2C)CC1 (stereo not shown) , thanks.
## Output 0.354%

## Input Could you tell me which hERG current change (%, negative = inhibition) at 1uM is on file for CC(Sc1nnc(Nc2ccccc2F)s1)C(=O)NC1CC1 (stereo not shown) ?
## Output 3%

## Input Consider the molecule CN1CCN(c2ccc([N+](=O)[O-])cc2C(=O)c2ccccc2)CC1 and give its measured hERG current change (%, negative = inhibition) at 1uM.
## Output -17.5%

## Input // returns reported hERG current change (%, negative = inhibition) at 1uM for input O=C(O)c1ccc2c(=O)[nH]c(CN3CCOCC3)nc2c1
## Output 15.6%

## Input If you can, please state the reported hERG current change (%, negative = inhibition) at 1uM value of COc1cccc(COC(=O)C2CCN(S(=O)(=O)c3ccc(Cl)cc3)CC2)c1OC .
## Output 5.7%

## Input Entry CN1CCN(C(=S)SCC(=O)Nc2ccc(Cl)cc2C(=O)c2ccccc2)CC1 : reported hERG current change (%, negative = inhibition) at 1uM = ?
## Output -5.6%

## Input Can you share its hERG current change (%, negative = inhibition) at 1uM? I mean this molecule: COc1ccc(CN2CCN(Cc3ccccc3C(F)(F)F)CC2)c(OC)c1.O=C(O)C(=O)O
## Output -39.5%

## Input Any idea what hERG current change (%, negative = inhibition) at 1uM was measured for CCOc1cc(/C=C2/C(=N)N3C(=NC2=O)SN=C3S(C)(=O)=O)ccc1OS(=O)(=O)c1ccccc1 ?
## Output 17.3%

###

# hERG current change (%, negative = inhibition) at 1uM per entry
# TARGET OF ASSAY: human ether-à-go-go-related gene (hERG) potassium channel (human, UniProt Q12809)
# ASSAY PROCEDURE: primary screen, population patch clamp on CHO cells stably expressing hERG; higher = less effect of the substance
About 2,200 (0.71%) of roughly 310,000 compounds showed an effect of 50% or more. The effect is printed as a negative number. The entries come from a sample that favours strong results as a whole.
Give the number; % is assumed, so skip it.

Example results:
>>> value_observed("Cc1cc(C)n(CC(O)CN(c2ccccc2)S(=O)(=O)c2ccc3ccccc3c2)n1 (stereo not shown)")
6.41
>>> value_observed("Cc1ccc(S(=O)(=O)N(CC(O)CN2C(=O)NC(C)(C)C2=O)c2ccccc2)cc1 (stereo not shown)")
-28.4
>>> value_observed("CCCN(CCC)CC(O)CN(c1ccccc1)S(=O)(=O)c1ccc(C)cc1 (stereo not shown)")
-88.6
>>> value_observed("Cc1ccc(S(=O)(=O)N(CC(O)CN(C)C)c2ccccc2)cc1.Cl (stereo not shown)")
-43.8
>>> value_observed("O=C(CCc1nnc(CCCCc2ccccc2)o1)NCCN1CCOC1=O")
9.65

## Input Entry C/C=C/c1ccc(OC(C)=O)c(OC)c1 has what hERG current change (%, negative = inhibition) at 1uM?
## Output 8.76

## Input What hERG current change (%, negative = inhibition) at 1uM value was documented for this compound, COc1ccc(CNC(=O)CCCn2nc(C)c3c(C)n(-c4ccc(C)cc4)nc3c2=O)cc1 ?
## Output 6.87

###

# hERG current change (%, negative = inhibition) at 1uM values compiled below
# TARGET OF ASSAY: human ether-à-go-go-related gene (hERG) potassium channel (human, UniProt Q12809)
# ASSAY PROCEDURE: primary screen, population patch clamp on CHO cells stably expressing hERG; higher = less effect of the substance
Among all 310,000 compounds or so, about 2,200 (0.71%) showed an effect of 50% or more. The effect is printed as a negative number. The sample holds strong results, similar compounds and a random draw of the others, so the mix is not that of the screen.
Entry rule: numbers only, all in %.

Consider the following illustrative entries.
>>> value_observed("COc1ccc(C(=O)NC2CC3CCCC(C2)N3Cc2ccccc2)cc1 (stereo not shown)")
-15.7
>>> value_observed("CN(C)S(=O)(=O)N1CCN(c2ccc(Cl)cc2)CC1")
5.65
>>> value_observed("Cc1ccc(C(=O)Nc2nc3nc(-c4ccccc4)cc(=O)n3[nH]2)cc1")
14.5
>>> value_observed("O=C(NC1CC2CCC(C1)N2Cc1ccccc1)c1cccc(F)c1 (stereo not shown)")
-17.5
>>> value_observed("NC(=O)c1cc(S(=O)(=O)N2CCN(c3ccc([N+](=O)[O-])cc3)CC2)cs1")
-59.3

## Input Dear colleague, I am looking for the recorded hERG current change (%, negative = inhibition) at 1uM of the following compound: O=C(NC1CC2CCCC(C1)N2S(=O)(=O)c1ccccc1)c1ccccc1 (stereo not shown)
## Output -9.46

## Input Data request, read-out hERG current change (%, negative = inhibition) at 1uM, for CCOC(=O)C1CCN(C(C)C(=O)c2c(C)[nH]c3cc(C)ccc23)CC1 (stereo not shown)
## Output -66.9

## Input # input compound: Cc1ccccc1N1CCN(S(=O)(=O)c2ccccc2)CC1 ; wanted: its hERG current change (%, negative = inhibition) at 1uM
## Output 5.62

## Input Give its hERG current change (%, negative = inhibition) at 1uM value. Item: CN(C)S(=O)(=O)N1CCN(c2ccc([N+](=O)[O-])cc2)CC1
## Output -60.5

## Input Report hERG current change (%, negative = inhibition) at 1uM for COc1cc2c(cc1OC)CN(CC(=O)Nc1ccc3c(c1)OCO3)CC2 please.
## Output 14.5
